# System: 5-hydroxytryptamine receptor 7 (Homo sapiens, UniProt P34969)
# Sequence (P34969 whole entry): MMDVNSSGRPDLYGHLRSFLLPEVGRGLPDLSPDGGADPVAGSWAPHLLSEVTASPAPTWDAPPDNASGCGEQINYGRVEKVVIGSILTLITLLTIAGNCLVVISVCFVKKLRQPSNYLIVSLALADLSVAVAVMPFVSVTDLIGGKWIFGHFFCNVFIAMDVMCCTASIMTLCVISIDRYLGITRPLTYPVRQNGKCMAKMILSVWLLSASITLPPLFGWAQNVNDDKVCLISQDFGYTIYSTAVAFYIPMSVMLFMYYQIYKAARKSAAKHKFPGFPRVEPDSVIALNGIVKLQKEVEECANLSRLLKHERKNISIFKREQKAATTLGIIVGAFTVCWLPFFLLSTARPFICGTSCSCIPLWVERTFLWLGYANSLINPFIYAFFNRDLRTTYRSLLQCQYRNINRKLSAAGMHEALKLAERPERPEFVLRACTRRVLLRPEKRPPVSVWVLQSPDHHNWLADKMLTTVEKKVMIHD
# Experimental protocol: Displacement of [3H]5-HT from human 5-HT7 receptor expressed in HEK293 cells after 30 mins by microbeta counting analysis
# Type: cell-based
Recorded metric: Ki (nM)

CN(CCCN1CCN(c2ccccc2)CC1)c1cccc(Br)c1; 161
CN(CCCN1CCN(c2ccccc2)CC1)c1cccc(Cl)c1; 179
Oc1cccc(N(CCCN2CCN(c3ccccc3)CC2)Cc2ccccc2)c1; 92.5
Oc1ccc2[nH]cc(CCN3CCN(c4ccccc4)CC3)c2c1; 63.1

P: Oc1cccc(N(CCCN2CCN(c3ccccc3)CC2)c2ccccc2)c1
Q: CN(CCN1CCN(c2ccccc2)CC1)c1cccc([N+](=O)[O-])c1
Hi, I'm comparing P with Q and wondering which one has the bigger number for Ki. Any idea? Returns: label corresponding to the selected item.
Q

The reported numbers originate from ChEMBL document CHEMBL3259775.
